# Test system: MAPKAPK2
# test-parameters: concentration: 1 μM, replicates: in singlicate; n = 1;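 also: KINOMEscan kinase panel screen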
compounds and their reported %Inh
Give just the number in %; leave the unit off.

// query Notebook: pull reported %Inh for MAPKAPK2, entry `CNc1ncnc2[nH]ncc12`
// result 0

// query %Inh of `NS(=O)(=O)c1cccc(-c2ccc3ncc(N4CCOCC4)nc3c2)c1` on MAPKAPK2?
// result 7

// query Test system MAPKAPK2; read-out %Inh; what value for `N#Cc1c(N2CCOCC2)sc(-c2ccn[nH]2)c1-c1ccc(Cl)cc1` ?
// result 0

---

# Tested on: RPS6KA4(Kin.Dom.2-C-terminal)
# test-parameters: concentration: 1 μM, replicates: in singlicate; n = 1
outcome-measure: %Inh (%)
// return numeric value only (unit: %, not printed)

In the examples that follow, each entry is paired with its recorded %Inh.
* COc1ccc(Nc2nccc(N3CCC(NC(=O)Nc4cccc(C(C)=O)c4)C3)n2)cc1 (stereo not drawn) [GSK1379731] | 0
* Cc1cccc(-c2nc(-c3ccc(S(C)(=O)=O)cc3)sc2-c2ccncc2)c1 | 3
* NS(=O)(=O)c1cccc(-c2ccc3ncc(N4CCOCC4)nc3c2)c1 [GSK1535721] | 0
* N#Cc1c(N2CCOCC2)sc(-c2ccn[nH]2)c1-c1ccc(Cl)cc1 | 3
* COc1ccc(S(=O)(=O)NC2CCN(c3cc(C)nc(Nc4cccc(C#N)c4)n3)CC2)cc1.O=C(O)C(F)(F)F [GSK1653539] | 0
* O=C(NCCNc1ccnc(Nc2ccc(F)cc2)n1)c1cc2ccccc2s1 [GSK1379874] | 0
* CNc1ncnc2[nH]ncc12 [SKF-18355] | 0
* Cl.Oc1cccc(Nc2ccnc3cc(-c4ccncc4)ccc23)c1 [GW494601] | 0
* O=C(NOCC1CC1)c1ccc(F)c(F)c1Nc1ccc(I)cc1Cl | 0
* NS(=O)(=O)CCc1cccc(Nc2nccc(-c3c(-c4cccc(NC(=O)c5c(F)cccc5F)c4)nn4ccccc34)n2)c1 [GSK336735] | 0

// query Field request: %Inh | item: COc1ccc(Nc2ncc(C#N)c(Nc3ccccc3C(N)=O)n2)cc1N1CCN(C)CC1.Cl [GSK1558669]
// result 97

// query %Inh for CC(C)Oc1ccc2c(-c3ccnc(Nc4ccc(N5CCN(C)CC5)cc4)n3)cnn2n1 [GW696155] ?
// result 99.8

// query Field request: %Inh | item: CC(C)(CN)c1nc(-c2ccc(Cl)c(O)c2)c(-c2ccncc2)[nH]1.O=C(O)C(F)(F)F [SB-477794]
// result 0

// query May I ask what %Inh has been recorded for O=C(Nc1n[nH]c2cc(-c3cccc(F)c3)ccc12)C1CC1 [SB-735464] ?
// result 9

// query Given the entry `Cc1ccc(C(=O)NCC(N)=O)cc1-n1c(C)cc(OCc2ccc(F)cc2F)c(Br)c1=O` , report its measured %Inh.
// result 0

// query Value lookup for %Inh; key = COc1ccc(Nc2nccc(N3CCC(NC(=O)Nc4cc(C)ccc4C)C3)n2)cc1 (stereo not drawn) [GSK1379741]
// result 0

// query If you can, please state the reported %Inh value of `COc1cc2c(cc1OCCN1CCN(C)CC1)ncc1c3ccc(C#N)cc3[nH]c21` .
// result 0

// query So what's the measured %Inh for this one? COc1cc(Nc2nccc(N3CCC(NC(=O)c4cccc(NC(C)=O)c4)C3)n2)cc(OC)c1OC (stereo not drawn) [GSK1379754]
// result 0
